B1: Twister Ribozyme (parent)
chain: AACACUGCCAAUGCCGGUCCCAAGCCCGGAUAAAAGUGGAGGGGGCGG

- Variants of: B1
- TEST DETAILS: self-cleavage, relative activity (ratio to wild type); higher = more cleavage; co-transcriptional
Quick rule for you: self-cleavage at 0.2 or higher means T, lower means F.

Check out these entries, answers already filled in.
A1C G28U = F
G13U G24C = F
C27U G47A = T
G42A G45C = F
A11G A30U = T

**Q:** Kindly determine if self-cleavage recorded for A23C C27A is above or exactly 0.2.
**A:** F

**Q:** Kindly determine if self-cleavage recorded for A10C G41C is above or exactly 0.2.
**A:** T

**Q:** Kindly determine if self-cleavage recorded for C15U G44U is above or exactly 0.2.
**A:** T

**Q:** Kindly determine if self-cleavage recorded for A2U C14G is above or exactly 0.2.
**A:** F

**Q:** Kindly determine if self-cleavage recorded for G38C G44U is above or exactly 0.2.
**A:** T

**Q:** Kindly determine if self-cleavage recorded for C8U C20G is above or exactly 0.2.
**A:** F
